This collection of values is drawn from patent US20260265403A1.

Molecular target: T1, human CD24 on cells (human, UniProt P25063 27-59)
T1 chain (looked up): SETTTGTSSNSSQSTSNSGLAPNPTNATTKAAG
Experiment: cell-based or functional assay
attributeMeasured: EC50 of Phagocytosis assay, IgG1, Kappa; NALM6 (µg/mL)

[[record]]
binder = "74-H4C6 (4451), IgG1, Kappa (antibody, V domains shown) VH: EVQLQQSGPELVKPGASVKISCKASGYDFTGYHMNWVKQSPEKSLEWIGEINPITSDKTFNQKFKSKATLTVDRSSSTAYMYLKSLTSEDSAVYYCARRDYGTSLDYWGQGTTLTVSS VL: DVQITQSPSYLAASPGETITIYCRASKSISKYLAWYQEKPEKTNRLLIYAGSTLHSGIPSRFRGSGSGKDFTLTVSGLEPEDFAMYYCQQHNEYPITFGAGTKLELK"
datavalue = 0.19

[[record]]
binder = "45-H1E4, IgG1, Kappa (antibody, V domains shown) VH: QIQLVQSGPELKKPGETVKISCKASGYTFTTYGMSWMKQAPGKGLKWMGWINTYSGVPAYADDFKGRFAFSLDTSASTAYLQINNLKNEDTATYFCARSGYPWSPHSYSTDYWGQGISVTVSS VL: DVLLTQTPLSLPVSLGDQASISCKSSQSIVHSNGNTYLEWYLQKPGQSPKRLIYKVSNRFSGVPDRFSGSGSGTDFTLKISRVEAEDLGVYYCFQGSHVPWTFGGGTKLEIK"
datavalue = 1.25

[[record]]
binder = "63-B10B9, IgG1, Kappa (antibody, V domains shown) VH: EVQLQQSGPELVKPGASVKISCKASGYSFTGYYMNWVKQSPEKSLEWIGEINPITGGTTYNQKFRAKATLTVDRSSSTAYMQLKSLTSEDSAVYYCTKRDYDTSLDYWGQGTTLIVSS VL: DVQITQSPSYLAAFPGETITINCRASKSIKKYLAWYQEKPGKTNNLLIYSGSTLQSGIPSRFSGSGTGTDFTLTISSLEPEDFAMYYCQQHNEYPLTFGAGTKLELK"
datavalue = 1.91

[[record]]
binder = "62-F7E9, IgG1, Kappa (antibody, V domains shown) VH: QVQLQQPGAELVKPGASVKLSCKASGYTSTSYWLHWVKQRPGRGLEWIGRIDPNSGETKFNEKFKSQATLTVDKPSSTAYMQLNSLTSEDSAVYYCALYYYGSILFDYWGQGTTLTVSS VL: ENVLTQSPAIMSASPGEKVTMTCRTSSIISSGFLHWYQQKSGASPKLWIYSTSNLASGVPARFSGSGSGTSYSLTISSVEAEDAATYYCQQYSGHPLTFGAGTKLELK"
datavalue = 8.62

[[record]]
binder = "59-G9D7, IgG1, Kappa (antibody, V domains shown) VH: QVQLQQPGADLVKPGASVKLSCKASGYTVTTYWMHWVRQRPGRGLEWIGRIDPNSGETKYSEKFKNKATLTVDRPSSTAYMQLSSLTFEDSAVYFCAIYYYLNNFLFDYWGQGTTLTVSS VL: ENVLTQSPAIMSASPGEKVTMTCRASSSVSSSYLHWYQKKSGASPKLWIYSTSNLASGVPARFSGSGSGTSYSLTISSVEAEDAATYYCQQYSGYPLTFGAGTKLELK"
datavalue = 7.9

[[record]]
binder = "90-D11B6, IgG1, Kappa (antibody, V domains shown) VH: EVQLQQSGPELVKPGASVRISCKASGYSFTGYYMNWVKQSPEKNLEWIGEINPITGGSTYNQKFVAKATLTVDRSSSTAYMQLKSLTSEDSAVYYCTRRDYDTSLDYWGQGTTLTVSS VL: DVQITQSPSYLAASPGETITINCRASKSISKYLAWYQEKPGKTIKLLIYAGSTLQSGIPSRFSGSGYGTDFTLTISSLEPEDFAMYYCQQHNEYPLTFGAGTKLELK"
datavalue = 1.19

[[record]]
binder = "67-H2E7, IgG1, Kappa (antibody, V domains shown) VH: EVQLQQSGPELVKPGASVKISCKASGYEFTGYHMNWVKQSPEKSLEWIGEINPITSDKTFNQKFKAKATLTVDRSSTTAYMHLKSLTSEDSAVYYCARRDYDTSLDYWGQGTTLTVSS VL: DVQITQSPSYLAASPGETITIYCRASKSISKYLAWYQEKPEKTNRLLIYAGSTLQSGIPSRFRGSGSGKDFTLTVSGLEPEDFAMYYCQQHNEYPLTFGAGTKLDLK"
datavalue = 0.22

[[record]]
binder = "89-E8C12 (4428), IgG1, Kappa (antibody, V domains shown) VH: EVQLQQSGPELVKPGASVKISCKASGYDFTGYYMNWMKQSPEKSLEWIGEINPITSHNTFNQKFKAKATLTVDRSSSTAYMHLKSLTSEDSAVYYCARRDYGTSLDYWGQGTTLTVSS VL: DVQITQSPSYLAASPGETITIYCRASKSISKYLAWYQEKPEKTIRLLIYAGSTLQSGIPSRFRGSGSGTDFTLTVSGLEPEDFAMYYCQQHNEYPLTFGAGTKLELK"
datavalue = 0.23

[[record]]
binder = "85-D5A10 (4434), IgG1, Kappa (antibody, V domains shown) VH: EVQLQQSGPELVKPGASVKISCKASGYEFTGYHMNWVKQSPEKSLEWIGEINPITSDKTFNQKFKAKATLTVDRSSSTAYMHLKSLTSDDSAVYYCARRDYGTSLDYWGQGTTLTVSS VL: DVQITQSPSYLAASPGETITIYCRASKSISKYLAWYQEKPEKTIRLLIYAGSTLQSGIPSRFRGSGSGKDFTLTVSGLEPEDFAMYYCQQHNEYPITFGAGTKLELI"
datavalue = 0.32

